Known pIC50 of a selection of molecules
Tested on: ATXN3 transcripts containing exon 4 (E4E5)
Experiment: ATXN3 quantitative splicing assay (qPCR, SK-N-MC cells)
Format: cell-based
Details: Homo sapiens, 24 h treatment, qPCR E4E5 primers/probe, read-out: ATXN3 Potency - Splicing E4E5 IC50
pIC50: −log10 of the molar value.

The following molecules have reported results that may help.
molecule	assay_endpoint	experimental_value
Cc1c(C[C@H](N)C[C@@H]2CC2(F)F)sc2c(NCc3cccs3)cnnc12	pIC50	5.30 to 6.30
Cc1c(CC#N)sc2c(NCc3cccs3)cnnc12	pIC50	4.40 to 5.00
Cc1c(C[C@@H](N)CC(C)C)sc2c(NCc3ccco3)cnnc12	pIC50	5.00 to 5.30
Cc1c(C[C@@H](N)CC#N)sc2c(NCc3ccco3)cnnc12	pIC50	5.00 to 5.30
CSC[C@H](N)Cc1sc2c(NCc3cccs3)cnnc2c1C	pIC50	5.30 to 6.30
C[C@H](N)Cc1sc2c(N[C@@H](C)c3cccs3)cnnc2c1Br	pIC50	4.40 to 5.00
Cc1c([C@H](C)[C@H](C)N)sc2c(NCc3cccs3)cnnc12	pIC50	4.40 to 5.00
Cc1c(C[C@@H](N)CS(C)(=O)=O)sc2c(NCc3ccco3)cnnc12	pIC50	4.40 to 5.00

// query Please list pIC50 recorded for the molecule Cc1c(CC(C)CN)sc2c(NCc3cccs3)cnnc12 (stereo not drawn)
// result 4.40 to 5.00

// query Please list pIC50 recorded for the molecule Cc1c(C[C@H](C)N)sc2c(NCn3cccn3)cnnc12
// result 5.30 to 6.30

// query Please list pIC50 recorded for the molecule Cc1c(C(F)(F)[C@H](C)N)sc2c(NCc3cccs3)cnnc12
// result 5.30 to 6.30

// query Please list pIC50 recorded for the molecule Cc1c([C@H](O)[C@H](C)N)sc2c(NCc3cccs3)cnnc12 (single isomer, unassigned)
// result 4.40 to 5.00

// query Please list pIC50 recorded for the molecule Cc1c(C[C@@H](N)COC2CC2)sc2c(NCc3cccs3)cnnc12
// result 5.30 to 6.30

// query Please list pIC50 recorded for the molecule Cc1c(C[C@H]2CCCN2)sc2c(NCc3cccs3)cnnc12
// result 4.40 to 5.00

###

Tested on: ATXN3 transcripts containing exon 4 (E4E5)
Assay: ATXN3 quantitative splicing assay (qPCR, SK-N-MC cells)
Format: cell-based
Conditions: Homo sapiens, 24 h treatment, qPCR E4E5 primers/probe, read-out: ATXN3 Potency - Splicing E4E5 IC50
assay_endpoint: IC50

The following compounds have reported results that may help.
compound	experimental_value
C[C@H](F)[C@H](N)Cc1sc2c(NCc3cccs3)cnnc2c1Br [Compound 135]	0.101 to 0.5 µM
COc1nnc2c(C)c(C[C@H](C)N)sc2c1NCc1cccs1 [Compound 86]	10 to 40 µM
Cc1c(C[C@@H](N)CO)sc2c(NCc3ccco3)cnnc12 [Compound 1]	0.501 to 5 µM
Cc1c(C[C@H](C)N)sc2c(NCc3ccc(Br)s3)cnnc12 [Compound 62]	5 to 10 µM
Cc1c(C[C@H](C)N)sc2c(NCc3cccs3)c(Br)nnc12 [Compound 66]	10 to 40 µM
Cc1c(C[C@H](C)N)sc2c(NCc3ccns3)cnnc12 [Compound 18]	10 to 40 µM

Let's switch to this compound now.
// query Please list IC50 recorded for the compound Cc1c(C[C@@H]2CCN2)sc2c(NCc3cccs3)cnnc12 [Compound 71]
// result 10 to 40 µM
